- Tested on: Klebsiella pneumoniae
- procedure_summary: Antibacterial activity against Klebsiella pneumoniae 1756 assessed as growth inhibition at 1 mg/mL after 24 hrs by agar-disk diffusion technique
- Type: functional, organism-based
Calls of active or inactive are those of the source. No cut-off for these calls is given here.
assay_readout: growth inhibition (GI)

Some compounds with known growth inhibition (GI) results, for comparison:
compound	assay_readout	experimental_value
NC(S)(/C=C/c1ccc(Cl)cc1)NNC(=O)c1ccncc1 (stereo not drawn)	growth inhibition (GI)	Active
Cc1ccc(/C=C/C(N)=S)cc1	growth inhibition (GI)	inactive
NC(=S)/C=C/c1ccc(Cl)cc1	growth inhibition (GI)	inactive
COc1ccc(/C=C/C(N)=S)cc1	growth inhibition (GI)	inactive
CCOc1ccc(/C=C/C(N)(S)NNC(=O)c2ccncc2)cc1 (stereo not drawn)	growth inhibition (GI)	inactive

Reported growth inhibition (GI) of NC(=S)/C=C/c1ccccc1 : Active

Reported growth inhibition (GI) of NNC(=O)c1ccncc1 : inactive

Reported growth inhibition (GI) of CCOc1ccc(/C=C/C(N)=S)cc1 : inactive
